# system: WDR5 (Δ23, residues 24-334) (Homo sapiens, UniProt P61964)
# assay-procedure: biochemical
# condition-summary: Kd (M), FPA-based binding affinity at the WDR5 WIN site; IC50 converted to Kd by modified Cheng-Prusoff equation; average of two experiments
experimental-endpoint: Kd (M)

COc1cccc(C(=O)N(Cc2cccc(-c3cn4c(n3)CCC4)c2)CC2CCCCC2)c1 [B36]    2.58e-07
O=C(NCc1cccc(-c2cn3c(n2)CCC3)c1)C1CC1c1ccccc1 (centres unmarked) [B39]    5.61e-07

A = O=C(Cc1cccc(OC(F)(F)F)c1)NCc1cccc(-c2cn3c(n2)CCC3)c1 [B137]
B = O=C(Cc1ccc2c(c1)CCO2)NCc1cccc(-c2cn3c(n2)CCC3)c1 [B153]
Req: Pick one, A or B : lowest reported Kd. Answer with the label corresponding to your selection.
Resp: A
